experiment: GHS categories as the set defines them, by LD50: 1 up to 5, 2 up to 50, 3 up to 300, 4 up to 2000, 5 above 2000 mg/kg; settings: rat; in vivo; po
Outcome Measure: GHS category
Just the number, please, no unit attached.

Need GHS category, item O=C(O)CNC(c1ccccc1)c1ccc(Cl)c(Cl)c1 (stereo unspecified)
4

Need GHS category, item CCCc1c(Cc2ccc(-c3ccccc3-c3nn[nH]n3)cc2)c(=O)nc2nc(SC)[nH]n12
4

Need GHS category, item CCCCCCCC(=O)OOC(C)(C)C
5

Need GHS category, item CCNc1nc(Cl)nc(NCC(=O)O)n1
5

Need GHS category, item CN[C@@H]1[C@H](O[C@H]2[C@H](O[C@@H]3[C@H](O)[C@@H](O)[C@@H](OC(N)=O)[C@@H](O)[C@@H]3NC(=N)N)O[C@@H](C)[C@]2(O)CO)O[C@@H](CO)[C@H](O)[C@H]1O
5

Need GHS category, item C=CC(=O)NCCO
5

Need GHS category, item CNC(=O)Oc1cccc2c1OCO2
3

Need GHS category, item CC(CO)COC1CC2CCC1(C)C2(C)C (stereo unspecified)
5

Need GHS category, item CC(=O)CCC=C(C)CCC=C(C)C
5

Need GHS category, item COC(=O)C1=C(C)NC(C)=C(C(=O)OC(C)C)C1c1cccc2nonc12 (stereo unspecified)
5

Need GHS category, item CSc1nc2cc(Cl)c(Oc3cccc(Cl)c3Cl)cc2[nH]1
5

###

assay: GHS categories as the set defines them, by LD50: 1 up to 5, 2 up to 50, 3 up to 300, 4 up to 2000, 5 above 2000 mg/kg; conditions: rat; in vivo; po
Outcome Measure: GHS category
Just the number, please, no unit attached.

Need GHS category, item O=P(O)(O)CN(CP(=O)(O)O)CP(=O)(O)O
5

Need GHS category, item CCC(=O)OC/C=C(\C)CCC=C(C)C
5

Need GHS category, item O=C1NC(=O)C(c2ccc(O)cc2)(c2ccc(O)cc2)N1
5

Need GHS category, item CC(=O)O[C@@]12CCC[C@@](C)(CC[C@@H]3[C@@H]1CC3(C)C)C2
5

Need GHS category, item CCCCCCCCCCCCCCCCCC(=O)OCC
5

Need GHS category, item CCCCCCCCCC[C@H]1O[C@H]1CCCCC(C)C
5

Need GHS category, item COc1cc(C)c(C(=O)c2c(OC)ccc(Br)c2C)c(OC)c1OC
5

Need GHS category, item COCCOCCOC(=O)C(=O)Nc1nc(-c2ccccc2)cs1
5

Need GHS category, item Cc1cccc(C)c1NC(=O)CN1CCN(CCCC(c2ccc(F)cc2)c2ccc(F)cc2)CC1
5

Need GHS category, item CCC(=O)O[C@]1(C(=O)CCl)[C@@H](C)C[C@H]2[C@@H]3CCC4=CC(=O)C=C[C@]4(C)[C@@]3(F)[C@@H](O)C[C@@]21C
5

Need GHS category, item CCNC(=O)CCSCc1nnnn1-c1ccccc1
4

Need GHS category, item CCOC(=O)C(F)C(C)=O (stereo not given)
3

Need GHS category, item COc1cc2c(cc1OC)-c1c(C)c3ccc(OC)c(OC)c3c[n+]1CC2
4

Need GHS category, item Cc1ccc(C(C)C)cc1OC(=O)c1ccccc1Nc1cccc(C)c1C
5

Need GHS category, item COc1ccc(C2NC(=O)C(C)S2)cc1 (stereo not given)
5

Need GHS category, item NC(=O)c1ccc(NC(=O)c2ccc(N)cc2)cc1
5

Need GHS category, item Cc1cc(C)c(NC(=O)c2sc(N)nc2C)c(C)c1
4

Need GHS category, item O=C(O)C(=O)C(O)C(O)C(O)CO (stereo not given)
5

Need GHS category, item CS(C)(=O)=O
5

Need GHS category, item Cc1cc(S(=O)(=O)O)c(/N=N/c2c(O)c(C(=O)O)cc3ccccc23)cc1Cl
5

###

experiment: GHS categories as the set defines them, by LD50: 1 up to 5, 2 up to 50, 3 up to 300, 4 up to 2000, 5 above 2000 mg/kg; settings: rat; in vivo; po
Consider the following molecules; for each one, report its GHS category.
Just the number, please, no unit attached.

Need GHS category, item Cc1c(C)c2c(c(C)c1O)CCC(C)(COc1ccc(CC3SC(=O)NC3=O)cc1)O2 (configuration not stated)
5

Need GHS category, item CCC1(CO)COC1
5

Need GHS category, item C=CC(C)(CCC=C(C)C)OC(C)OCC (configuration not stated)
5

Need GHS category, item Cc1cccc(OC(=O)c2ccccc2OC(N)=O)c1
5

Need GHS category, item c1ccc(CN(Cc2ccccc2)Sc2nc3ccccc3s2)cc1
5

Need GHS category, item COc1ccc(Cl)cc1N/C(=N/C1CCCCC1)c1ccccc1C
4

Need GHS category, item CNC(=O)C(=NNc1ccccc1)C(C)=O
5

Need GHS category, item CCCCCCCCCCCCCCCC(=O)OC
5

Need GHS category, item COC(=O)NC(=S)Nc1ccc(OCc2ccccc2)cc1[N+](=O)[O-]
5

Need GHS category, item CC(=O)[C@@]1(O)CC[C@H]2[C@@H]3CCC4=CC(=O)CC[C@]4(C)C3=CC[C@@]21C
5

Need GHS category, item CCCCc1ccc2[nH]c(NC(=O)OC)nc2c1
2

Need GHS category, item CCCCCC1C(=O)CCC1CC(=O)OC (configuration not stated)
5

###

assay: GHS categories as the set defines them, by LD50: 1 up to 5, 2 up to 50, 3 up to 300, 4 up to 2000, 5 above 2000 mg/kg; settings: rat; in vivo; po
Outcome Measure: GHS category
Just the number, please, no unit attached.

Need GHS category, item CCN(CC)CCNC(C(=O)OCCC(C)C)c1ccccc1 (configuration not stated)
4

Need GHS category, item CCOC(=O)CP(=O)(OCC)OCC
5

Need GHS category, item O=S(O)c1ccc(Cl)cc1
4

Need GHS category, item C[Si](C)(C)O[Si](C)(C)C
5

Need GHS category, item COC(=O)c1ccc2cc(C(=O)OC)ccc2c1
5

Need GHS category, item Nc1cc(Cl)c(Cl)cc1Cl
5

Need GHS category, item COc1ccccc1N1CCN(/C(N)=N/c2ccc(Cl)c(Cl)c2)CC1
4

###

Consider the following compounds; for each one, report its GHS category.
assay: GHS categories as the set defines them, by LD50: 1 up to 5, 2 up to 50, 3 up to 300, 4 up to 2000, 5 above 2000 mg/kg; settings: rat; in vivo; po
Just the number, please, no unit attached.

Need GHS category, item C/C(=C\CO)CCC[C@H](C)CCC[C@H](C)CCCC(C)C
5

Need GHS category, item CC1CC(OC(=O)COc2ccc(F)cc2)CC(C)(C)C1 (configuration not stated)
5

Need GHS category, item O=C(O)c1cc(O)ccc1Nc1cccc(C(F)(F)F)c1
4

Need GHS category, item CC(C)Cc1ccc2cc(CC(=O)O)ccc2c1
4

Need GHS category, item CCOc1c(N)c2c(c(OCC)c1OCC)C(C1c3c(cc4c(c3OC)OCO4)CCN1C)OC2=O (configuration not stated)
5

Need GHS category, item Oc1ccc(OCc2ccccc2)cc1
5

Need GHS category, item CC(C)C(=O)c1ccc2cc(CC(=O)O)ccc2c1
5

###

Consider the following molecules; for each one, report its GHS category.
assay: GHS categories as the set defines them, by LD50: 1 up to 5, 2 up to 50, 3 up to 300, 4 up to 2000, 5 above 2000 mg/kg; conditions: rat; in vivo; po
Just the number, please, no unit attached.

Need GHS category, item Cc1cc(Cl)ccc1OC(C)C(=O)Nc1ccccc1 (stereo unspecified)
5

Need GHS category, item CC[C@H]1CO[C@@](Cn2cncn2)(c2cc3cc(Cl)ccc3o2)O1
4

Need GHS category, item O=C1c2ccccc2CN2C(=O)c3ccccc3CN12
5

Need GHS category, item C[N+]1(CC(O)COc2cccc3c2CCC(=O)N3)CCC(c2ccccc2)CC1 (stereo unspecified)
4

Need GHS category, item CC(COc1ccc(Oc2ccccc2)cc1)Oc1ccccn1 (stereo unspecified)
5

Need GHS category, item NC(N)=Nc1nc2c(s1)CN(C(=O)NC1CC1)CC2
4

Need GHS category, item OC[C@@H](O)[C@@H](O[C@@H]1O[C@H](CO)[C@H](O)[C@H](O)[C@H]1O)[C@H](O)[C@@H](O)CO
5

Need GHS category, item CCCCC(CC)CNc1ccc2ccccc2c1N=Nc1ccc(N=Nc2ccccc2C)cc1C (stereo unspecified)
5

Need GHS category, item CCCc1nc(C)n2[nH]c(=O)nc2c1Cc1ccc(-c2ccccc2-c2nn[nH]n2)cc1
4

Need GHS category, item OC1(c2ccc(Cl)c(Cl)c2)c2ccccc2C2=NCCCN21 (stereo unspecified)
4

Need GHS category, item CC12CCC(O)C=C1C(O)CC1(O)C2CCC2(C)C(c3ccc(=O)oc3)CCC21O (stereo unspecified)
2

Need GHS category, item CCCCCCC1(C)CCC(=O)O1 (stereo unspecified)
5

Need GHS category, item OC1CCC(N2CCCCC2)CC1 (stereo unspecified)
5

Need GHS category, item Nc1cccc2c(S(=O)(=O)O)cccc12
5

Need GHS category, item COc1ccccc1OCCNCC(O)COc1cccc2[nH]c3ccccc3c12 (stereo unspecified)
5

Need GHS category, item CO/C=C(/C(=O)OC)c1ccccc1Oc1cc(Oc2ccccc2C#N)ncn1
5
